- System: AR mRNA
- TEST: Dose-dependent antisense inhibition of human AR in HuVEC cells (electroporation, qRT-PCR RTS3559, IC50)
- Format: cell-based
- ASSAY SETUP: Table 35; 3000.0 nM, HuVEC, electroporation, approximately 16 hours
Oligonucleotides are written 5' to 3', each unit as a sugar letter and its base; * is a phosphorothioate linkage, no mark a phosphodiester; rarer units and linkages stand in square brackets, end groups in braces. Plain capitals give the bases only. k = constrained ethyl (cEt); [5mC] = 5-methylcytosine; d = 2'-deoxy (DNA)
ATTRIBUTE MEASURED: percent inhibition of AR, 3000.0 nM (%)
One number for each entry, in %.

>>> print(df.to_string())
                                  substance  measured
0  584179 (kA*kT*kG*dA*dG*dT*d[5mC]*d[5mC]*dT*d[5mC]*dA*dG*dA*kA*kT*k[5mC]; antisense) [compound 584179]        87
1  584111 (kG*kT*kT*dT*dT*d[5mC]*dA*dA*dA*dT*dG*d[5mC]*dA*kG*k[5mC]*k[5mC]; antisense) [compound 584111]        84
2  584183 (kA*k[5mC]*kA*dG*dG*d[5mC]*dT*d[5mC]*dT*dG*dA*d[5mC]*dT*kA*kG*kG; antisense) [compound 584183]        87

Quick request: percent inhibition of AR, 3000.0 nM for each listed item, please.
1. 584152 (kG*kA*kG*dT*dT*dG*dT*dG*dA*dT*dT*dT*d[5mC]*kA*kG*kG; antisense) [compound 584152]
2. 584138 (k[5mC]*kG*k[5mC]*dG*d[5mC]*dA*dG*dG*dT*dA*dG*dG*dA*kG*k[5mC]*k[5mC]; antisense) [compound 584138]
3. 584148 (k[5mC]*kA*kT*dA*dT*dT*dA*dT*dT*dG*dT*dG*d[5mC]*kT*kG*k[5mC]; antisense) [compound 584148]
4. 549372 (kA*kA*kG*dT*dT*dG*dT*dA*dG*dT*dA*dG*dT*k[5mC]*kG*k[5mC]) [compound 549372]
5. 549458 (kG*kT*kT*dG*dA*dT*dT*dT*dA*dA*dT*dG*dG*kT*kT*kG) [compound 549458]

Reply text:
[95, 89, 95, 88, 91]

###

- Tested on: AR mRNA
- TEST: Dose-dependent antisense inhibition of human AR in HuVEC cells (electroporation, qRT-PCR RTS3559, IC50)
- Format: cell-based
- ASSAY SETUP: Table 29; 3000.0 nM, HuVEC, electroporation, approximately 16 hours
Oligonucleotides are written 5' to 3', each unit as a sugar letter and its base; * is a phosphorothioate linkage, no mark a phosphodiester; rarer units and linkages stand in square brackets, end groups in braces. Plain capitals give the bases only. k = constrained ethyl (cEt); [5mC] = 5-methylcytosine; d = 2'-deoxy (DNA)
I'd be grateful if you could share measured percent inhibition of AR, 3000.0 nM for these entries.
Please state the value followed by its unit.

Past entries and their recorded results:
>>> df
                                  substance                   attribute_measured  measured
0  583567 (antisense kG*k[5mC]*kA*d[5mC]*dT*dT*dT*d[5mC]*d[5mC]*dT*dT*dG*d[5mC]*kT*kT*k[5mC]) [compound 583567]  percent inhibition of AR, 3000.0 nM       79%
1  583660 (antisense kG*kA*k[5mC]*dA*d[5mC]*dA*d[5mC]*dG*dG*dT*dG*dG*dA*k[5mC]*kA*kA) [compound 583660]  percent inhibition of AR, 3000.0 nM       72%

In the following, a different substance is considered.
Inquiry: Request the reported percent inhibition of AR, 3000.0 nM associated with 583649 (antisense kA*kG*kG*d[5mC]*dT*d[5mC]*dA*d[5mC]*dA*dG*dT*d[5mC]*dT*kG*kT*k[5mC]) [compound 583649]
Reply text: 84%
